Reference source: paper PMC10450164

assay system: TFAP2B R285Q (Homo sapiens, UniProt Q92481 219-457, R285Q)
Sequence (Q92481 219-457 R285Q): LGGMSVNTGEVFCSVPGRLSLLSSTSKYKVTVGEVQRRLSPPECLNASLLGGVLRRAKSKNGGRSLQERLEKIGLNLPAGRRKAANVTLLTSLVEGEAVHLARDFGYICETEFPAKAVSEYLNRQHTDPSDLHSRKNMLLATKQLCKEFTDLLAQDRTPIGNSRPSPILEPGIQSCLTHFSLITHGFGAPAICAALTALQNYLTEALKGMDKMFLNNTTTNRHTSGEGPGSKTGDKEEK
measurement protocol: ITC
parameter measured: pKd
Please treat pKd as minus the base-10 logarithm of the molar concentration.

Write down pKd measured for item CGA (GCC(N3)GGC) (dsDNA) DNA 1: GTGCCCGAGGCAG DNA 2: CTGCCTCGGGCAC
6.75
